test system: HepG2; test: cell viability relative to DMSO; higher = less toxic; details: 72 h; 10 nM
VALUE_KIND: cell viability (%)

                                   molecule  test_system  unit  numeric_value
0    CCc1cccc(CC)c1NC(=O)CN(CC(=O)O)CC(=O)O        HepG2     %           84.1
1  CN(CCOc1ccc(-c2ccc3c(c2)OCO3)cc1C(C)(C)C)CC(=O)O        HepG2     %           89.7
2  C/C=C1\[C@H]2C=C(C)C[C@]1(N)c1ccc(=O)[nH]c1C2 [(-)-Huperzine A]        HepG2     %           97.4
3  O=S(=O)(NCC1CC1)c1ccc(Nc2nccc(N3CCCc4cc(O)ccc43)n2)cc1        HepG2     %            103
4  C=C1CCN([C@H](C)[C@](O)(Cn2cncn2)c2ccc(F)cc2F)CC1        HepG2     %           98.3
5  FC(F)(F)c1ccc(Nc2ncnc3cc(-c4ncccc4C(F)(F)F)ccc23)cc1        HepG2     %           94.9
6  CN1CCN(c2ccc3[nH]c(-c4ccc5[nH]c(-c6ccc(O)cc6)nc5c4)nc3c2)CC1        HepG2     %           97.4
7  C=CC(=O)Nc1cccc(Nc2nc(Nc3ccc(OCCOC)cc3)ncc2F)c1        HepG2     %           95.7
8  CN(CCOc1ccc(NS(C)(=O)=O)cc1)CCc1ccc(NS(C)(=O)=O)cc1 [dofetilide]        HepG2     %            102
